Species on record: Rattus norvegicus
PROCEDURE_SUMMARY: DrugMatrix - Regimen: Daily Repeat
Type: toxicity, organism-based, Sprague-Dawley
Set-up: regimen Daily Repeat, gender Male, age 6-8 weeks
APPLIED_CONDITIONS: in vivo, po, 0 mg/kg, 120 h, tissue Blood, route oral GAVAGE, dose level Control, time 5 day, vehicle 100 % WATER

{"COMPOUND": "CCN(CC)CCNC(=O)c1cc(S(C)(=O)=O)ccc1OC [TIAPRIDE]", "LEUKOCYTE COUNT": "14.38 x10E3/uL"}
{"COMPOUND": "NNc1nncc2ccccc12 [HYDRALAZINE]", "LEUKOCYTE COUNT": "13.67 x10E3/uL"}
{"COMPOUND": "CN(C)CC[C@@H](c1ccc(Cl)cc1)c1ccccn1", "LEUKOCYTE COUNT": "13.6 x10E3/uL"}
{"COMPOUND": "CC(C)(C)CC(C)(C)c1ccc(OCCOCC[N+](C)(C)Cc2ccccc2)cc1.[Cl-] [BENZETHONIUM CHLORIDE]", "LEUKOCYTE COUNT": "13.67 x10E3/uL"}

* * *

# HEMATOCRIT annotations
Species on record: Rattus norvegicus
PROCEDURE_SUMMARY: DrugMatrix - Regimen: Daily Repeat
Assay type: toxicity, organism-based, Sprague-Dawley
Design: regimen Daily Repeat, gender Male, age 6-8 weeks
APPLIED_CONDITIONS: in vivo, po, 2000 mg/kg, 120 h, tissue Blood, route oral GAVAGE, dose level High, time 5 day, vehicle .5 % CMC

{"MOLECULE": "COc1cc2nc(N3CCN(C(=O)c4ccco4)CC3)nc(N)c2cc1OC", "HEMATOCRIT [%]": 34}
{"MOLECULE": "CN(C/C=C/C#CC(C)(C)C)Cc1cccc2ccccc12", "HEMATOCRIT [%]": 37.1}
{"MOLECULE": "CC1(C)S[C@@H]2[C@H](NC(=O)[C@H](N)c3ccccc3)C(=O)N2[C@H]1C(=O)O", "HEMATOCRIT [%]": 33.33}
{"MOLECULE": "O=C1Nc2ccc(Cl)cc2C(c2ccccc2Cl)=NC1O (stereo unspecified)", "HEMATOCRIT [%]": 36.95}
{"MOLECULE": "CN/C(=N/CCSCc1nc[nH]c1C)NC#N", "HEMATOCRIT [%]": 34.37}
{"MOLECULE": "NC1CCN(c2nc3c(cc2F)c(=O)c(C(=O)O)cn3-c2ccc(F)cc2F)C1 (stereo unspecified)", "HEMATOCRIT [%]": 39.83}

* * *

Organism: Rattus norvegicus
PROCEDURE_SUMMARY: DrugMatrix - Regimen: Daily Repeat
Assay type: toxicity, organism-based, Sprague-Dawley
Parameters: regimen Daily Repeat, gender Male, age 6-8 weeks
APPLIED_CONDITIONS: in vivo, po, 0 mg/kg, 120 h, tissue Blood, route oral GAVAGE, dose level Control, time 5 day, […]
# ABSOLUTE EOSINOPHIL annotations

{"MOLECULE": "CC(C)(C)NC(=O)[C@H]1CC[C@H]2[C@@H]3CC[C@H]4NC(=O)C=C[C@]4(C)[C@H]3CC[C@]12C [FINASTERIDE]", "ABSOLUTE EOSINOPHIL [CELLS/uL]": 0}
{"MOLECULE": "COc1cc(N)c(Cl)cc1C(=O)NC1CCN(CCCOc2ccc(F)cc2)CC1OC (stereo not drawn) [CISAPRIDE]", "ABSOLUTE EOSINOPHIL [CELLS/uL]": 20.67}
{"MOLECULE": "Clc1ccc(COC(Cn2ccnc2)c2ccc(Cl)cc2Cl)cc1 (stereo not drawn) [ECONAZOLE]", "ABSOLUTE EOSINOPHIL [CELLS/uL]": 0}

* * *

Species on record: Rattus norvegicus
PROCEDURE_SUMMARY: DrugMatrix - Regimen: Daily Repeat
Assay type: toxicity, organism-based, Sprague-Dawley
Design: regimen Daily Repeat, gender Male, age 6-8 weeks
APPLIED_CONDITIONS: in vivo, po, 50 mg/kg, 120 h, tissue Blood, route oral GAVAGE, dose level Low, time 5 day, vehicle .5 % CMC

{"COMPOUND": "CCN1CCC[C@H]1CNC(=O)c1cc(S(N)(=O)=O)ccc1OC [LEVOSULPIRIDE]", "HEMATOCRIT (%)": 37.23}
{"COMPOUND": "CN(C)[C@@H]1C(O)=C(C(N)=O)C(=O)[C@@]2(O)C(O)=C3C(=O)c4c(O)ccc(Cl)c4[C@@](C)(O)[C@H]3C[C@@H]12", "HEMATOCRIT (%)": 33.27}
{"COMPOUND": "Cc1cccc(C)c1OCC(C)N (centres undefined)", "HEMATOCRIT (%)": 35.37}
{"COMPOUND": "NC1CCN(c2nc3c(cc2F)c(=O)c(C(=O)O)cn3-c2ccc(F)cc2F)C1 (centres undefined)", "HEMATOCRIT (%)": 34.23}

* * *

# PHOSPHORUS annotations
Species on record: Rattus norvegicus
PROCEDURE_SUMMARY: DrugMatrix - Regimen: Daily Repeat
Format: toxicity, organism-based, Sprague-Dawley
Design: regimen Daily Repeat, gender Male, age 6-8 weeks
APPLIED_CONDITIONS: in vivo, po, 0 mg/kg, 120 h, tissue Plasma, route oral GAVAGE, dose level Control, time 5 day, […]

{"MOLECULE": "CO[C@H]1/C=C/O[C@@]2(C)Oc3c(C)c(O)c4c(O)c(c(/C=N/N5CCN(C6CCCC6)CC5)c(O)c4c3C2=O)NC(=O)/C(C)=C\\C=C\\[C@H](C)[C@H](O)[C@@H](C)[C@@H](O)[C@@H](C)[C@H](OC(C)=O)[C@@H]1C", "PHOSPHORUS / mg/dL": 11.4}
{"MOLECULE": "COc1cc(N)c(Cl)cc1C(=O)NC1CCN(CCCOc2ccc(F)cc2)CC1OC (centres undefined) [CISAPRIDE]", "PHOSPHORUS / mg/dL": 10.43}
{"MOLECULE": "CC(C)(C)NC(=O)[C@H]1CC[C@H]2[C@@H]3CC[C@H]4NC(=O)C=C[C@]4(C)[C@H]3CC[C@]12C [FINASTERIDE]", "PHOSPHORUS / mg/dL": 10.8}
{"MOLECULE": "Clc1ccc(COC(Cn2ccnc2)c2ccc(Cl)cc2Cl)cc1 (centres undefined)", "PHOSPHORUS / mg/dL": 11.13}

* * *

Organism: Rattus norvegicus
PROCEDURE_SUMMARY: DrugMatrix - Regimen: Daily Repeat
Format: toxicity, organism-based, Sprague-Dawley
Set-up: regimen Daily Repeat, gender Male, age 6-8 weeks
APPLIED_CONDITIONS: in vivo, sc, 0 mg/kg, 120 h, tissue Blood, route subcutaneous, dose level Control, time 5 day, […]
REPORTED_PROPERTY: MEAN CORPUSCULAR HEMOGLOBIN (pg)

{"MOLECULE": "Oc1c(Cl)cc(Cl)c(Cl)c1Cc1c(O)c(Cl)cc(Cl)c1Cl", "RECORDED_VALUE": 23.83}
{"MOLECULE": "CC(C)(C)CC(C)(C)c1ccc(OCCOCC[N+](C)(C)Cc2ccccc2)cc1.[Cl-] [BENZETHONIUM CHLORIDE]", "RECORDED_VALUE": 23.83}
{"MOLECULE": "CCN(CC)CCOCCC1=CCC2CC1C2(C)C (stereo not given)", "RECORDED_VALUE": 25.12}
{"MOLECULE": "O=C(Nc1ccc(Br)cc1)c1cc(Br)cc(Br)c1O", "RECORDED_VALUE": 24.05}
{"MOLECULE": "CCC(=O)O[C@]1(C(=O)CCl)[C@@H](C)C[C@H]2[C@@H]3CCC4=CC(=O)C=C[C@]4(C)[C@@]3(F)[C@@H](O)C[C@@]21C [CLOBETASOL PROPIONATE]", "RECORDED_VALUE": 24.05}

* * *

Organism: Rattus norvegicus
PROCEDURE_SUMMARY: DrugMatrix - Regimen: Daily Repeat
Format: toxicity, organism-based, Sprague-Dawley
Set-up: regimen Daily Repeat, gender Male, age 6-8 weeks
APPLIED_CONDITIONS: in vivo, po, 0 mg/kg, 72 h, tissue Blood, route oral GAVAGE, dose level Control, time 3 day, vehicle .5 % CMC
# MEAN CORPUSCULAR HEMOGLOBIN CONCENTRATION annotations
REPORTED_PROPERTY: MEAN CORPUSCULAR HEMOGLOBIN CONCENTRATION (G/DL)

{"COMPOUND": "O=C1Nc2ccc(Cl)cc2C(c2ccccc2Cl)=NC1O (stereo not given) [LORAZEPAM]", "UNIT_INFO": "G/DL", "RECORDED_VALUE": 39.4}
{"COMPOUND": "COc1cc2nc(N3CCN(C(=O)c4ccco4)CC3)nc(N)c2cc1OC [PRAZOSIN]", "UNIT_INFO": "G/DL", "RECORDED_VALUE": 39.4}
{"COMPOUND": "CN/C(=N/CCSCc1nc[nH]c1C)NC#N [CIMETIDINE]", "UNIT_INFO": "G/DL", "RECORDED_VALUE": 38.98}
{"COMPOUND": "Clc1ccccc1CN1CCc2sccc2C1 [TICLOPIDINE]", "UNIT_INFO": "G/DL", "RECORDED_VALUE": 39.44}
{"COMPOUND": "COC1=C(OC)C(=O)C(CCCCCCCCCCO)=C(C)C1=O [IDEBENONE]", "UNIT_INFO": "G/DL", "RECORDED_VALUE": 38.98}
{"COMPOUND": "CN(C/C=C/C#CC(C)(C)C)Cc1cccc2ccccc12 [TERBINAFINE]", "UNIT_INFO": "G/DL", "RECORDED_VALUE": 37.4}
{"COMPOUND": "CCN(CC)CCOc1ccc(/C(=C(/Cl)c2ccccc2)c2ccccc2)cc1 [ENCLOMIPHENE]", "UNIT_INFO": "G/DL", "RECORDED_VALUE": 36.85}
{"COMPOUND": "NCCCC(O)(P(=O)(O)O)P(=O)(O)O [ALENDRONIC ACID]", "UNIT_INFO": "G/DL", "RECORDED_VALUE": 39.44}
{"COMPOUND": "Cn1c(=O)c2c(ncn2CC(O)CO)n(C)c1=O (stereo not given) [DYPHYLLINE]", "UNIT_INFO": "G/DL", "RECORDED_VALUE": 40.27}
{"COMPOUND": "CC(C(=O)O)c1ccc2oc(-c3ccc(Cl)cc3)nc2c1 (stereo not given) [BENOXAPROFEN]", "UNIT_INFO": "G/DL", "RECORDED_VALUE": 32.08}

Numbers sourced from ChEMBL document CHEMBL3885881.
